Let's look at some molecules and their measured viability at 24 h, 1000 µM.
# assay: MTT viability, HT29
# Format: cell-based, human
# particulars: human, HT29 colorectal adenocarcinoma cells, 1000 µM (IC50 exceeded 1000 µM), read-out: viability ± standard deviation at 1000 µM
Write down the numeric answer in % and omit the unit.

Value of measured viability at 24 h, 1000 µM for the entry CC(C)=CCCC(C)CC(C)=CCO (stereo not shown) : 106

In plain terms, CC(C)=CCCC(C)CCC(C)=CC=O (stereo not shown) has a documented viability at 24 h, 1000 µM of 93

Lookup result for CC(=O)CCC=C(C)C(C)CCCC(C)C (stereo not shown) ; measured viability at 24 h, 1000 µM: 111

In plain terms, CC(=CC=O)CCC=C(C)C(C)CCCC(C)C (stereo not shown) has a documented viability at 24 h, 1000 µM of 82

# viability at 24 h, 1000 µM (molecule: CC(=O)OCC=C(C)CCC=C(C)CCC=C(C)C [Farnesyl acetate (5), farnesyl acetate, reference compound] ) is 105

Others:
Entry CC(C)=CCCC(C)=CCCC(C)=CC=O [Farnesal (3), farnesal, reference compound] ; viability at 24 h, 1000 µM = 110

viability at 24 h, 1000 µM in this record for CC(C)=CCCC(C)CC(C)C(C)=CCO (stereo not shown) : 82

viability at 24 h, 1000 µM in this record for CC(=O)CCC=C(C)C(C)CCC=C(C)C (stereo not shown) : 102

# viability at 24 h, 1000 µM of C=CC(C)(O)CCC(C)CCC=C(C)C (stereo not shown) = 102

CC(C)=CCCC(C)/C=C/CCC(C)=CCO (stereo not shown) has a reported viability at 24 h, 1000 µM of 108

CC(=O)OCC=C(C)CCC=C(C)C(C)CCC=C(C)C (stereo not shown) yielded viability at 24 h, 1000 µM of 96

Given item CC(=O)OC/C=C(\C)CCC=CC(C)CCC=C(C)C (stereo not shown) , the value recorded as its viability at 24 h, 1000 µM is 107

Documented viability at 24 h, 1000 µM of CC(=O)OCC=C(C)CC(C)CCC=C(C)C (stereo not shown) : 110

viability at 24 h, 1000 µM reported for this molecule CC(=O)CCC=CC(C)CCC=C(C)C (stereo not shown) : 98

For reference, reported viability at 24 h, 1000 µM for CC(=O)CCC=C(C)CCC(C)CCC=C(C)C (stereo not shown) stands at 103

viability at 24 h, 1000 µM in this record for CC(=CCO)CCC=C(C)C(C)CCCC(C)C (stereo not shown) : 96
